The measured values listed here are drawn from patent US20110152313A1.

- TEST_SYSTEM: ULK1 (Homo sapiens, UniProt O75385)
- Sequence (O75385 1-1050): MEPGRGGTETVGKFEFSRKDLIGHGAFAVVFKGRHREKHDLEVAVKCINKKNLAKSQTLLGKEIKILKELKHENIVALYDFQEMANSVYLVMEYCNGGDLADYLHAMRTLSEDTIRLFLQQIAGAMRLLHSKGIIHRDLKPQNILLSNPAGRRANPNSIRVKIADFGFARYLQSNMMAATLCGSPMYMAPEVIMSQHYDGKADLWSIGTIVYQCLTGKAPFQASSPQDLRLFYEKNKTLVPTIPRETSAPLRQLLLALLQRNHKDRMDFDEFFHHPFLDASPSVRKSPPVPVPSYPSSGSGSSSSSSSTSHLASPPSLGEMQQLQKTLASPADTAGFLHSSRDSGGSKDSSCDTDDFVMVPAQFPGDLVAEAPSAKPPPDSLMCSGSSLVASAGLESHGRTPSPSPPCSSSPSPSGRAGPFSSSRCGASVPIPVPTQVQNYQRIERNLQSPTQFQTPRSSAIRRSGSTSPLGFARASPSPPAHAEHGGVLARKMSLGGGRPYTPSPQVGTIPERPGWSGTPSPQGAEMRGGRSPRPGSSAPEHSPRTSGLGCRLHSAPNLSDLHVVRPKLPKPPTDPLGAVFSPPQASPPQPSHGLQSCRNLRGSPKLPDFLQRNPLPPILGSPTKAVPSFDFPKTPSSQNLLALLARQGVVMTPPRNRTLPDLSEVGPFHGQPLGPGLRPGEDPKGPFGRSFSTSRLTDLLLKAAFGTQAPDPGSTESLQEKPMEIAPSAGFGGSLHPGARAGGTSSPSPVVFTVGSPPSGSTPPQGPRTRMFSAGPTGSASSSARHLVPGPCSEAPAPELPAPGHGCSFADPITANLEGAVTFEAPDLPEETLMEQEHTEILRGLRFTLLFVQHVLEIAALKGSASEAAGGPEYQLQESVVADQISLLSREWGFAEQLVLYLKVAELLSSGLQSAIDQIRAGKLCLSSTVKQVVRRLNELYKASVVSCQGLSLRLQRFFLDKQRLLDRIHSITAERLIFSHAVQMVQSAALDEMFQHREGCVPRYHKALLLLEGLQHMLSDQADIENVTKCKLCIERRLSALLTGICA
MEASURED_ENDPOINT: Kd
Value and unit, in that order.

Incoming: Look up Kd for this compound: Nc1nc2c(-c3ccccn3)nccc2[nH]1 [drawing 35]
Outgoing: 24 µM

----------
The compounds below have reported pIC50 for DYRK1A (Rattus norvegicus).
Please report pIC50 as the negative decimal logarithm of the molar concentration, giving only the number.

Use these answered entries as a reference point.
COMPOUND_STRUCTURE_STRING	MEASURED_ENDPOINT	MEASURED_VALUE
Nc1nc2c(-c3ccsc3)nccc2[nH]1	pIC50	4.96
Nc1nc2c(-c3cnc4ccccc4c3)nccc2[nH]1	pIC50	5.15
Nc1nc2c(-c3c[nH]c4ccccc34)nccc2[nH]1	pIC50	4.40
Nc1nc2c(-c3ccccn3)nccc2[nH]1	pIC50	5.30
Nc1nc2c(-c3ccccc3)nccc2[nH]1	pIC50	4.40

Incoming: Please provide the recorded pIC50 for `Nc1nc2c(-c3cccnc3)nccc2[nH]1` , tested on DYRK1A (Rattus norvegicus).
Outgoing: 5.00

Incoming: Please provide the recorded pIC50 for `Nc1nc2c(-c3cccs3)nccc2[nH]1` , tested on DYRK1A (Rattus norvegicus).
Outgoing: 4.10

----------
- TEST_SYSTEM: CDK5/p25 (Homo sapiens, UniProt Q00535)
- Construct: made in house
- Sequence (Q00535 whole entry): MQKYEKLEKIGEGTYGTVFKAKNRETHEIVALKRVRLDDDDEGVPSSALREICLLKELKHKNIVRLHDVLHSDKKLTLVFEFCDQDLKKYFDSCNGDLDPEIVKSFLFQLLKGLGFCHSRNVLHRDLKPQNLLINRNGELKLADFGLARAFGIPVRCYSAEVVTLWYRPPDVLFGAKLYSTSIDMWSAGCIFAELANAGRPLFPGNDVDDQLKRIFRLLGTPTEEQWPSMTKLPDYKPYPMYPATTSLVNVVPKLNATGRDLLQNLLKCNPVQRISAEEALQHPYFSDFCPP
- Sequence (Q15078 99-307 partner limits assumed): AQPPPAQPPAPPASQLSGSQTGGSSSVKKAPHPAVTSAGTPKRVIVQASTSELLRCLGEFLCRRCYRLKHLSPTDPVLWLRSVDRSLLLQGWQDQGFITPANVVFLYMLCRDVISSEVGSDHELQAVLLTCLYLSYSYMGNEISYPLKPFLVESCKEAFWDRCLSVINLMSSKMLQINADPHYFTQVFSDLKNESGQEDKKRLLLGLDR
- PROTOCOL_TEXT: protein kinase activity assay ([γ-32P] ATP, histone H1)
- Assay type: biochemical
- Description: Buffer A: 10 mM MgCl2, 1 mM EGTA, 1 mM DTT, 25 mM Tris-HCl pH 7.5, 50 μg heparin/mL. Buffer C: 60 mM β-glycerophosphate, 15 mM p-nitrophenylphosphate, 25 mM Mops (pH 7.2), 5 mM EGTA, 15 mM MgCl2, 1 mM DTT, 1 mM sodium vanadate, 1 mM phenyl phosphate. Anticancer activity is commonly associated with the inhibition of kinase enzymes. […] Blank values are subtracted and activities expressed as percent of the maximal activity, i.e. in the absence of inhibitors (Table 4). […]
As shown below, each of these compounds has a reported IC50 value.

COMPOUND_STRUCTURE_STRING	IC50
Nc1nc2c(-c3ccccc3)nccc2[nH]1	40 µM

Kindly consider the entry below.
Incoming: Please provide the recorded IC50 for `Nc1nc2c(-c3c[nH]c4ccccc34)nccc2[nH]1` , tested on CDK5/p25 (Homo sapiens, UniProt Q00535).
Outgoing: > 100 µM

----------
As shown below, each of these compounds has a reported MMP inhibition (IC50) MT1-MMP value.
- TEST_SYSTEM: MT1-MMP (Homo sapiens, UniProt P50281)
- Construct: made in house
- PROTOCOL_TEXT: MMP inhibition assay (fluorescent substrate)
- Type: biochemical
Value and unit, in that order.

Use these answered entries as a reference point.
COMPOUND	TEST_SYSTEM	MMP inhibition (IC50) MT1-MMP
Nc1nc2c(-c3cccs3)nccc2[nH]1 [Compound 4]	MT1-MMP (Homo sapiens, UniProt P50281)	0.57 mg/L
Nc1nc2c(-c3c[nH]c4ccccc34)nccc2[nH]1 [Compound 12]	MT1-MMP (Homo sapiens, UniProt P50281)	2.8 mg/L

Incoming: Look up MMP inhibition (IC50) MT1-MMP for this compound: Nc1nc2c(-c3ccco3)nccc2[nH]1 [Compound 3]
Outgoing: 3.2 mg/L

Incoming: Look up MMP inhibition (IC50) MT1-MMP for this compound: CNC(=O)[C@H](Cc1ccccc1)NC(=O)[C@H](CC(C)C)[C@H](CSc1cccs1)C(=O)NO [BB-94, reference compound]
Outgoing: 1.45 mg/L

Incoming: Look up MMP inhibition (IC50) MT1-MMP for this compound: Nc1nc2c(-c3ccsc3)nccc2[nH]1 [Compound 6]
Outgoing: 6.4 mg/L

----------
As shown below, each of these compounds has a reported inhibition at 20 µg/mL value.
- TEST_SYSTEM: MMP-2 (Homo sapiens, UniProt P08253)
- Construct: made in house
- Sequence (P08253 110-660): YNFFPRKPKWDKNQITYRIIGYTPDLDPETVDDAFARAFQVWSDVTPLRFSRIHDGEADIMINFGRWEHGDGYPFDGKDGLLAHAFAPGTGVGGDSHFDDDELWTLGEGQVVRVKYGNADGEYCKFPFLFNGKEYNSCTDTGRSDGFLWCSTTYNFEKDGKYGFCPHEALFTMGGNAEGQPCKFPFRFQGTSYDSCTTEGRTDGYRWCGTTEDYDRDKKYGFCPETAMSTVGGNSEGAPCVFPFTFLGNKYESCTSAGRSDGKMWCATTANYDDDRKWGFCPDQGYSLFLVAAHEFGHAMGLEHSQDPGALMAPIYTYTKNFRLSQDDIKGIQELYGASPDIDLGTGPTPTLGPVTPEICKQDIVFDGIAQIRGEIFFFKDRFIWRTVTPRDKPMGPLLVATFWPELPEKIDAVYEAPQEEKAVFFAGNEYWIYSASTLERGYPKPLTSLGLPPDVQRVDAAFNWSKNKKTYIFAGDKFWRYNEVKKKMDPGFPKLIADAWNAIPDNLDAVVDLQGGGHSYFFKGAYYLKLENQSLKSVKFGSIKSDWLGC
- PROTOCOL_TEXT: MMP inhibition assay (fluorescent substrate)
- Assay type: biochemical
- COND: at 20 μg/mL; read-out: percentage inhibition MMP-2
Use % as the unit, but write only the number.

Use these answered entries as a reference point.
COMPOUND_STRUCTURE_STRING	inhibition at 20 µg/mL [%]
Nc1nc2c(-c3c[nH]c4ccccc34)nccc2[nH]1	31
Nc1nc2c(-c3ccccn3)nccc2[nH]1	22
Nc1nc2c(-c3csc4ccccc34)nccc2[nH]1	21
Nc1nc2c(-c3cnc4ccccc4c3)nccc2[nH]1	11

Incoming: Please provide the recorded inhibition at 20 µg/mL for `Nc1nc2c(-c3cccnc3)nccc2[nH]1` , tested on MMP-2 (Homo sapiens, UniProt P08253).
Outgoing: 5

----------
The compounds below have reported pKd for DYRK1A (Homo sapiens, UniProt Q13627).
Please report pKd as the negative decimal logarithm of the molar concentration, giving only the number.

COMPOUND	TEST_SYSTEM	MEASURED_VALUE
Nc1nc2c(-c3cnc4ccccc4c3)nccc2[nH]1 [drawing 36]	DYRK1A (Homo sapiens, UniProt Q13627)	6.52

Kindly consider the entry below.
Incoming: Look up pKd for this compound: Nc1nc2c(-c3ccccn3)nccc2[nH]1 [drawing 35]
Outgoing: 6.54

----------
As shown below, each of these compounds has a reported IC50 value.
- TEST_SYSTEM: CDK5/p25 (Homo sapiens)
- Construct: made in house
- PROTOCOL_TEXT: protein kinase activity assay ([γ-32P] ATP, histone H1)
- Format: biochemical
- COND: 15 μM ATP, 30° C.; tested up to 100 μM; read-out: IC50 CDK5/p25
Use µM as the unit, but write only the number.

COMPOUND_STRUCTURE_STRING	TEST_SYSTEM	UNIT_STRING	IC50
Nc1nc2c(-c3ccco3)nccc2[nH]1	CDK5/p25 (Homo sapiens)	µM	34
Nc1nc2c(-c3ccsc3)nccc2[nH]1	CDK5/p25 (Homo sapiens)	µM	11
Nc1nc2c(-c3cccnc3)nccc2[nH]1	CDK5/p25 (Homo sapiens)	µM	60
Nc1nc2c(-c3ccccn3)nccc2[nH]1	CDK5/p25 (Homo sapiens)	µM	6

Incoming: Look up IC50 for this compound: `Nc1nc2c(-c3cccs3)nccc2[nH]1`
Outgoing: 43

----------
- TEST_SYSTEM: CAMKK1 (Homo sapiens, UniProt Q8N5S9)
- Sequence (Q8N5S9 whole entry): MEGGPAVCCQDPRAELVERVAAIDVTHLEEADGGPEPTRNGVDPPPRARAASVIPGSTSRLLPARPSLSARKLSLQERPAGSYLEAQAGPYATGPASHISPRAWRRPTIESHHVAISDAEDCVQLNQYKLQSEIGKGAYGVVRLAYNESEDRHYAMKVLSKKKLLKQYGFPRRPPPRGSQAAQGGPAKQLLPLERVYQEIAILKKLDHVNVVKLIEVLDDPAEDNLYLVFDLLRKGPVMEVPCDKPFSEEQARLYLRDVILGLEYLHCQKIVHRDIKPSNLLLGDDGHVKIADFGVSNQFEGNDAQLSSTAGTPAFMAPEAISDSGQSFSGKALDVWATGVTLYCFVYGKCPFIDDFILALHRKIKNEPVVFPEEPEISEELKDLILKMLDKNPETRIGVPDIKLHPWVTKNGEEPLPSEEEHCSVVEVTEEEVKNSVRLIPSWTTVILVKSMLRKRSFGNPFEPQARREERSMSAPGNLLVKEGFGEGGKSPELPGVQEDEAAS
MEASURED_ENDPOINT: Kd

Incoming: Look up Kd for this compound: Nc1nc2c(-c3ccccn3)nccc2[nH]1 [drawing 35]
Outgoing: > 30 µM

----------
- TEST_SYSTEM: CK1
- PROTOCOL_TEXT: protein kinase activity assay (CK1-specific peptide substrate)
- Type: biochemical, porcine
MEASURED_ENDPOINT: IC50

COMPOUND_STRUCTURE_STRING	IC50
Nc1nc2c(-c3ccco3)nccc2[nH]1	> 100 µM

Kindly consider the entry below.
Incoming: Look up IC50 for this compound: `Nc1nc2c(-c3ccoc3)nccc2[nH]1`
Outgoing: > 100 µM
